pKi: −log10 of the molar value.
Endpoint summary: pKi, system: 5-hydroxytryptamine receptor 6 (Homo sapiens, UniProt P50406), multiple sources combined.

Prompt: Output reported pKi of the molecule O=S(=O)(c1ccccc1C(F)(F)F)n1cc(C(F)F)c2c(N3CCNCC3)cc(Cl)cc21 on 5-hydroxytryptamine receptor 6 (Homo sapiens, UniProt P50406).
Completion: 8.03

Prompt: Output reported pKi of the molecule COc1cc(OCCN2CCCC2)c2c(c1)c(S(=O)(=O)c1cccc3ccccc13)nn2Cc1cccc(Cl)c1 on 5-hydroxytryptamine receptor 6 (Homo sapiens, UniProt P50406).
Completion: < 7.35

Prompt: Output reported pKi of the molecule O=S(=O)(Nc1cccc([C@@H]2CCN(Cc3ccccc3)C2)c1)c1cccc(C(F)(F)F)c1 on 5-hydroxytryptamine receptor 6 (Homo sapiens, UniProt P50406).
Completion: 7.30 to 8.00

---

Endpoint summary: Ki, system: UniProtKB P50406, multiple sources combined.

Prompt: Output reported Ki of the compound O=S(=O)(Nc1ccc2c(c1)OC(CNCc1cccnc1)CC2)c1ccccc1 (stereo not shown) on UniProtKB P50406.
Completion: 5 nM

Prompt: Output reported Ki of the compound CCNCCOc1ccc2c(c1)c(S(=O)(=O)c1cccc3ccccc13)nn2C on UniProtKB P50406.
Completion: 0.01 to 10 nM

Prompt: Output reported Ki of the compound O=S(=O)(c1cccc2ccccc12)c1n[nH]c2c(OCCCN3CCCCC3)cccc12 on UniProtKB P50406.
Completion: 36 to 45 nM

Prompt: Output reported Ki of the compound O=S(=O)(Nc1ccc2c(c1)OC(CNCCCO)CC2)c1ccc2ccccc2c1 (stereo not shown) on UniProtKB P50406.
Completion: 5 nM

Prompt: Output reported Ki of the compound O=S(=O)(c1cccc2ccccc12)c1n[nH]c2ccc(OCC3CCCNC3)cc12 (stereo not shown) on UniProtKB P50406.
Completion: 0.01 to 10 nM

Prompt: Output reported Ki of the compound C=CCN1CC[C@@H](c2ccc(NS(=O)(=O)c3cccc(C(F)(F)F)c3)cc2)C1 on UniProtKB P50406.
Completion: 1 to 10 nM

Prompt: Output reported Ki of the compound CN(C)CCCOc1cccc2c(S(=O)(=O)c3cccc4ccccc34)n[nH]c12 on UniProtKB P50406.
Completion: 36 to 45 nM

Prompt: Output reported Ki of the compound O=S(=O)(c1cccc2ccccc12)c1n[nH]c2ccc(CN3CCNCC3)cc12 on UniProtKB P50406.
Completion: 0.01 to 10 nM

Prompt: Output reported Ki of the compound CN(C)CCOc1ccc2c(c1)c(S(=O)(=O)c1cccc3ccccc13)nn2Cc1cccc(Cl)c1 on UniProtKB P50406.
Completion: 11 to 25 nM

Prompt: Output reported Ki of the compound O=S(=O)(c1cccc2ccccc12)c1n[nH]c2ccc(OCCCCN3CCCCC3)cc12 on UniProtKB P50406.
Completion: 0.01 to 10 nM

Prompt: Output reported Ki of the compound COc1ccc(NS(=O)(=O)c2c(C)sc3ccc(Cl)cc23)cc1N1CCN(C)CC1 on UniProtKB P50406.
Completion: < 10 nM

Prompt: Output reported Ki of the compound O=C(NCCN1CCCCC1)c1ccc2[nH]nc(S(=O)(=O)c3cccc4ccccc34)c2c1 on UniProtKB P50406.
Completion: > 45 nM

Prompt: Output reported Ki of the compound CCN(C)CCCc1ccc2[nH]nc(S(=O)(=O)c3cccc4ccccc34)c2c1 on UniProtKB P50406.
Completion: 0.01 to 10 nM
